# ASSAYED TARGET: Recombinant human JAK1 catalytic domain (Homo sapiens, UniProt P23458)
# Construct: Recombinant human JAK1 (catalytic domain, amino acids 866-1154; catalog number PV4774); purchased Invitrogen PV4774
# Sequence (P23458 866-1154): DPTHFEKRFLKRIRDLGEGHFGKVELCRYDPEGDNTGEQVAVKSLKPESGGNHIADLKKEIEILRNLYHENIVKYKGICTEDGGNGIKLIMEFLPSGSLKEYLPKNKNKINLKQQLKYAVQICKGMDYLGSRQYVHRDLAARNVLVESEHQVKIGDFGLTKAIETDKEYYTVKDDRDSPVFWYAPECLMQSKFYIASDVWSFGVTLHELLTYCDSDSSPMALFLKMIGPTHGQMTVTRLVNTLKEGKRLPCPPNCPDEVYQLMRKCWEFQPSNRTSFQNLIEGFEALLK
# ASSAY EXPLANATION: JAK1 inhibition assay (polyGT substrate / Ulight-JAK1 peptide assay)
# Assay type: biochemical
# CONDITION NOTES: Illustrative Compounds of the invention (Table V)
Here, each record is paired with measured IC50 data.

COMPOUND | IC50
Cc1cc(S(C)(=O)=O)cc(F)c1N(C)c1cc(NC(=O)C2CC2)c2ncn(C)c2c1 | 0.0001 to 0.05 µM
Cc1cc(S(C)(=O)=O)ccc1N(C)c1cc(NC(=O)[C@H]2C[C@H]2F)c2ncn(C)c2c1 | 0.0001 to 0.05 µM
Cc1cc(C#N)ncc1Oc1cc(N(C)C)c2ncn(C)c2c1 | > 0.5 µM
CCc1cc(C#N)cc(F)c1N(C)c1cc(NC(=O)C2CC2)c2ncn(C)c2c1 | 0.0001 to 0.05 µM
CCc1cc(C#N)cc(F)c1N(C)c1cc(NC(=O)[C@@H]2C[C@@H]2F)c2ncn(C)c2c1 (racemic) | 0.0001 to 0.05 µM

## Input Give IC50 for "CCc1cc(C#N)ncc1N(C)c1cc(NC(=O)[C@H]2C[C@H]2F)c2ncn(C)c2c1"
## Output 0.0001 to 0.05 µM

## Input Give IC50 for "Cc1cc(C#N)ncc1Oc1cc(NC(=O)[C@H]2C[C@H]2F)c2ncn(C)c2c1"
## Output 0.0001 to 0.05 µM

## Input Give IC50 for "CCc1cc(S(C)(=O)=O)ncc1N(C)c1cc(NC(=O)C2CC2)c2ncn(C)c2c1"
## Output 0.0001 to 0.05 µM

* * *

Here, each record is paired with measured pIC50 data.
# ASSAYED TARGET: Recombinant human JAK1 catalytic domain (Homo sapiens)
# Construct: Recombinant human JAK1 (catalytic domain, amino acids 866-1154; catalog number PV4774); purchased Invitrogen PV4774
# ASSAY EXPLANATION: JAK1 inhibition assay (polyGT substrate / Ulight-JAK1 peptide assay)
# Format: biochemical
# CONDITION NOTES: Illustrative Compounds of the invention (Table V)
pIC50: −log10 of the molar value.

Some molecules with known pIC50 results, for comparison:
MOLECULE | MEASURED VALUE
CN(c1cc(NC(=O)[C@H]2C[C@H]2F)c2ncn(C)c2c1)c1ccc(S(C)(=O)=O)cc1F [Cpd 17] | 6.30 to 7.00
CCc1cc(C#N)ncc1Oc1cc(NC(=O)[C@H]2C[C@H]2F)c2ncn(C)c2c1 [Cpd 6] | 7.30 to 10.00
Cc1cc(S(C)(=O)=O)cc(F)c1N(C)c1cc(NC(=O)[C@H]2C[C@H]2F)c2ncn(C)c2c1 [Cpd 16] | 7.30 to 10.00
Cc1cc(C#N)ncc1Oc1cc(NC(=O)C2CC2)c2ncn(C)c2c1 [Cpd 23] | 7.30 to 10.00

## Input Give pIC50 for Cc1cc(C#N)nc(F)c1N(C)c1cc(NC(=O)[C@H]2C[C@H]2F)c2ncn(C)c2c1 [Cpd 21]
## Output 7.30 to 10.00

* * *

# ASSAYED TARGET: Recombinant human JAK1 catalytic domain (Homo sapiens, UniProt P23458)
# Construct: Recombinant human JAK1 (catalytic domain, amino acids 866-1154; catalog number PV4774); purchased Invitrogen PV4774
# ASSAY EXPLANATION: JAK1 inhibition assay (polyGT substrate / Ulight-JAK1 peptide assay)
# Assay type: biochemical
# CONDITION NOTES: Illustrative Compounds of the invention (Table V)
# Description: Recombinant human JAK1 catalytic domain (amino acids 850-1154; catalog number 08-144) was purchased from Carna Biosciences. […] 40 μL/well of Microscint-20 is added, the top of the plates is sealed and readout is performed using the Topcount (Perkin Elmer). Kinase activity is calculated by subtracting counts per min (cpm) obtained in the presence of a positive control inhibitor (10 μM staurosporine) from cpm obtained in the presence of vehicle. […]
OBSERVABLE: IC50

## Input Give IC50 for "CNC(=O)Nc1cc(Oc2cnc(C#N)cc2C)cc2c1ncn2C"
## Output 0.1 to 50 nM

Origin of values: patent US10179771B2
